Target: T1, human CD147 protein (adsorbed to ELISA plates) (human, UniProt P35613-2 22-205, limits assumed)
T1 construct: also called human CD147 polypeptide; Basigin
T1 sequence (looked up): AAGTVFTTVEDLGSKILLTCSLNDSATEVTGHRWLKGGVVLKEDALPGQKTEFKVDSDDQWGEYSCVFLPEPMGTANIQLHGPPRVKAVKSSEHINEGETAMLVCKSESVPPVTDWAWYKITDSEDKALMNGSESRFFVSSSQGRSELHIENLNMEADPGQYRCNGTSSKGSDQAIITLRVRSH
Test: ELISA, human CD147 protein adsorbed to plate, intact activatable antibody; apparent KD
// classify: if (Kd < 20 nM) Y else N

| binder | label |
| --- | --- |
| anti-human CD147 activatable antibody hu 3A11 Hc1/Lc1-419.1-3001 (antibody, also called hu 3A11-419.1-3001) VH: EVQLVESGGGLVQPGGSLRLSCAASGFTFSNYWMDWVRQAPGKGLEWVGEIRLKSYNYATHYAASVKGRFTISRDDSKNSVYLQMNSLKTEDTAVYYCTAAGTDYWGQGTLVTVSS VL: LHGPCHYDLKCKQNTGGGSSGGSAVGLLAPPGGLSGRSDNHGGSDIQMTQSPSSLSASVGDRVTITCRASQSVRTDVGWYQQKPGKAPKLLIYYSSNRYTGVPSRFSGSGSGTDFTLTISSLQPEDFATYYCQQDYSSPYTFGQGTKLEIK | N |
| anti-human CD147 activatable antibody hu 3A11 Hc1/Lc1-419.2-3001 (antibody, V domains shown, also called hu 3A11-419.2-3001) VH: EVQLVESGGGLVQPGGSLRLSCAASGFTFSNYWMDWVRQAPGKGLEWVGEIRLKSYNYATHYAASVKGRFTISRDDSKNSVYLQMNSLKTEDTAVYYCTAAGTDYWGQGTLVTVSS VL: LHGPCHYDLKCKNNGGGSSGGSAVGLLAPPGGLSGRSDNHGGSDIQMTQSPSSLSASVGDRVTITCRASQSVRTDVGWYQQKPGKAPKLLIYYSSNRYTGVPSRFSGSGSGTDFTLTISSLQPEDFATYYCQQDYSSPYTFGQGTKLEIK | N |

Problem: Does this binder meet the criterion Kd < 20 nM? anti-human CD147 activatable antibody hu 3A11 Hc1/Lc1-414.3-2012 (antibody, V domains shown, also called hu 3A11-414.3-2012) VH: EVQLVESGGGLVQPGGSLRLSCAASGFTFSNYWMDWVRQAPGKGLEWVGEIRLKSYNYATHYAASVKGRFTISRDDSKNSVYLQMNSLKTEDTAVYYCTAAGTDYWGQGTLVTVSS VL: THGPCHFKPNCAYPTGGGSSGGSISSGLLSGRSANPGGGSDIQMTQSPSSLSASVGDRVTITCRASQSVRTDVGWYQQKPGKAPKLLIYYSSNRYTGVPSRFSGSGSGTDFTLTISSLQPEDFATYYCQQDYSSPYTFGQGTKLEIK
Solution: Y

Problem: Does this binder meet the criterion Kd < 20 nM? anti-human CD147 activatable antibody hu 3A11 Hc1/Lc1-419.3-3001 (antibody, V domains shown, also called hu 3A11-419.3-3001) VH: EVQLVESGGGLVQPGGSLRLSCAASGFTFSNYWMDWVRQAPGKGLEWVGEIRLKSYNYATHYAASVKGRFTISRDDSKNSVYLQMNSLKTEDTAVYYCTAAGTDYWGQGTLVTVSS VL: LHGPCHYDLKCKGGGSSGGSAVGLLAPPGGLSGRSDNHGGSDIQMTQSPSSLSASVGDRVTITCRASQSVRTDVGWYQQKPGKAPKLLIYYSSNRYTGVPSRFSGSGSGTDFTLTISSLQPEDFATYYCQQDYSSPYTFGQGTKLEIK
Solution: N

Problem: Does this binder meet the criterion Kd < 20 nM? anti-human CD147 activatable antibody hu 3A11 Hc1/Lc1-414-3001 (antibody, also called hu 3A11-414-3001) VH: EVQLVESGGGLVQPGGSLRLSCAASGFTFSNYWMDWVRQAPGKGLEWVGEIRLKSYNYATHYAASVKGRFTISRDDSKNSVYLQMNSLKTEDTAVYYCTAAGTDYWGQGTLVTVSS VL: THGPCHFKPNCSYPTGGGSSGGSAVGLLAPPGGLSGRSDNHGGSDIQMTQSPSSLSASVGDRVTITCRASQSVRTDVGWYQQKPGKAPKLLIYYSSNRYTGVPSRFSGSGSGTDFTLTISSLQPEDFATYYCQQDYSSPYTFGQGTKLEIK
Solution: N

Problem: Does this binder meet the criterion Kd < 20 nM? anti-human CD147 activatable antibody hu 3A11 Hc1/Lc1-419.3-2012 (antibody, V domains shown, also called hu 3A11-419.3-2012) VH: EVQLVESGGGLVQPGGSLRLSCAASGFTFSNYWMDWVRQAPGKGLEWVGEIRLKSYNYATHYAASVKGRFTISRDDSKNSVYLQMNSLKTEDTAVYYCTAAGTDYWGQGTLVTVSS VL: LHGPCHYDLKCKGGGSSGGSISSGLLSGRSANPGGGSDIQMTQSPSSLSASVGDRVTITCRASQSVRTDVGWYQQKPGKAPKLLIYYSSNRYTGVPSRFSGSGSGTDFTLTISSLQPEDFATYYCQQDYSSPYTFGQGTKLEIK
Solution: Y

Problem: Does this binder meet the criterion Kd < 20 nM? anti-human CD147 activatable antibody hu 3A11 Hc1/Lc1-414.4-2012 (antibody, V domains shown, also called hu 3A11-414.4-2012) VH: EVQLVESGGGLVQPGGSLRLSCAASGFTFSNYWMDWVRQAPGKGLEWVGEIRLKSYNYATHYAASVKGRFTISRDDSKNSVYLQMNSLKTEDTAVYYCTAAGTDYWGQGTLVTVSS VL: THGPCHFRPNCAYPTGGGSSGGSISSGLLSGRSANPGGGSDIQMTQSPSSLSASVGDRVTITCRASQSVRTDVGWYQQKPGKAPKLLIYYSSNRYTGVPSRFSGSGSGTDFTLTISSLQPEDFATYYCQQDYSSPYTFGQGTKLEIK
Solution: Y

Problem: Does this binder meet the criterion Kd < 20 nM? anti-human CD147 activatable antibody hu 3A11 Hc1/Lc1-415-2012 (antibody, V domains shown, also called hu 3A11-415-2012) VH: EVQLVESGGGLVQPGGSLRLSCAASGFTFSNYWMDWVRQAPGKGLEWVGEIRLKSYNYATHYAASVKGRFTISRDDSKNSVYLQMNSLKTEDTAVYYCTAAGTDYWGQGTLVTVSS VL: LHGPCHFNNCNTLKLGGGSSGGSISSGLLSGRSANPGGGSDIQMTQSPSSLSASVGDRVTITCRASQSVRTDVGWYQQKPGKAPKLLIYYSSNRYTGVPSRFSGSGSGTDFTLTISSLQPEDFATYYCQQDYSSPYTFGQGTKLEIK
Solution: Y

Problem: Does this binder meet the criterion Kd < 20 nM? anti-human CD147 activatable antibody hu 3A11 Hc1/Lc1-415.1-2012 (antibody, V domains shown, also called hu 3A11-415.1-2012) VH: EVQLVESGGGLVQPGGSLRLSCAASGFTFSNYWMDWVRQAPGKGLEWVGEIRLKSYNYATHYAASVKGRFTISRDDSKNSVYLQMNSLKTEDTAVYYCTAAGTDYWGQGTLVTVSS VL: LHGPCHFNNCNTLGGGSSGGSISSGLLSGRSANPGGGSDIQMTQSPSSLSASVGDRVTITCRASQSVRTDVGWYQQKPGKAPKLLIYYSSNRYTGVPSRFSGSGSGTDFTLTISSLQPEDFATYYCQQDYSSPYTFGQGTKLEIK
Solution: Y
